Assay: protein stability index of a GFP-peptide fusion (GPS, HEK-293T) (PSI 1-6); higher = more stable;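 note: 24-mer peptide tiles fused after GFP, lentivirally expressed, FACS-sorted into six equal bins by GFP/DsRed ratio, decoded by Illumina sequencing, PSI is the read-weighted mean bin number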
Conditions: treatment: DMSO; c terminus: a fixed tail appended
Please use satisfied whenever protein stability index is not below 3, and not satisfied whenever it is.

# residue-codes, qualitative-label
rows = [
    ("CLHHVHYLATEYLETHFRDVSSTE [GAN]", "not satisfied"),
    ("EKRAKRLSSAPSSRAEPIRTTVFQ [ZMAT5]", "satisfied"),
    ("PLTLQVQRPLVSVTVSDASWVSEL [AUP1]", "not satisfied"),
    ("VAVQEQEIARREKELEARVRKPAE [FLOT1]", "satisfied"),
    ("CSRTWTNRLCHQEMGSKKTVTQED [SPAG8]", "satisfied"),
    ("TSYCELLQNKVPLLGSSTACIVVL [PPTC7]", "not satisfied"),
    ("GEPRKLLTQDWVQENYLEYRQVPG [MAGEA10]", "satisfied"),
    ("CSWKGATKQRIQDQKVPYIFRDNQ [CHIT1]", "not satisfied"),
    ("EESRDPTLYANNVQRVMAQALGIP [LPCAT4]", "satisfied"),
    ("ENVVHGHILAAEQLSRDSTLGGKA [NSDHL]", "satisfied"),
    ("YTSELYPTVIRNVGLGTCSMFSRV [SLC22A15]", "not satisfied"),
    ("QFYRNLGKSGLRVSCLGLGTWVTF [KCNAB2]", "not satisfied"),
    ("EEETQFYISETVLAIDAIHQLGFI [STK38L]", "not satisfied"),
    ("SPSTRGSPNRSLPSPGVLCGSARP [ATF4]", "satisfied"),
    ("AVDCKWYIRAPPRSKIYLRFLDYE [NETO1]", "not satisfied"),
    ("LHRTFDPHFLRVPCWKITLFVIVP [MOG]", "satisfied"),
    ("EVPLISFTGSQPTAERITQLSAPH [ALDH8A1]", "satisfied"),
    ("LECVKFASHCLMNHPDLAKDLTEY [PDS5B]", "not satisfied"),
    ("PWGVQGGQESEVPYKREEEALEER [PKD2L1]", "satisfied"),
    ("ADGARSAVVAAGGGSSGQVTSNGS [CLPTM1]", "satisfied"),
    ("MKIFREKIEDFREEMWTFRGKIHA [CCDC70]", "not satisfied"),
    ("QGASWELQSLRPHDEDIKTTNVKS [ZNF396]", "satisfied"),
    ("TPLTEGSEDLDGHSDPEESFARDL [RETREG3]", "satisfied"),
]

---

Test: protein stability index of a GFP-peptide fusion (GPS, HEK-293T) (PSI 1-6); higher = more stable
Conditions: treatment: MLN4924 1 uM, 8 h; c terminus: a fixed tail appended

# residue-codes, protein stability index
rows = [
    ("QWLVSQLSAASPDTGHDSDKSDQS [TRAF3IP2]", 4.73),
    ("CKAFSTCVSHLIIVTVHYGCASFI [OR10K2]", 3.01),
    ("EPSHSVKVHTVPKPGKGADLSKPP [ATE1]", 4.96),
    ("EDVARPTQRLWDFTQSGPIVSRAT [GALNT9]", 3.87),
    ("PRNPTVRWGYVAMKFAQVFGCFFY [SOAT1]", 2.18),
    ("VHYAKVQLRFQHSQDVSDCYLELF [PLEKHN1]", 2.76),
    ("MNTNSKEVLSLGVQVPEAWEELLT [ZSCAN9]", 3.52),
    ("ARGTPSPKRMPSGRGGRDRFTAES [FSD1]", 4.69),
    ("SAAIHISETLEQKPHFESSTVKTE [EPB41L3]", 5.06),
    ("IREALHELLCCTNVSTKEGIHLAL [INTS4]", 2.48),
    ("EARGLRLSDLEDLEEEEEEEEEAE [IRX6]", 5.5),
    ("TEKLKANAESSKTWLKGKFTELRL [TRIM14]", 2.48),
    ("KNALEKYGPLKPLPQTPHLEEDLK [MYBL2]", 5.11),
    ("SGERWLERYEIDSLIGKGSFGQVV [DYRK1B]", 3.1),
    ("GDEMTSLSEYVSRMKETQKSIYYI [HSP90AB1]", 2.81),
    ("LVPKTHLMSESEWRNLGVQQSQGW [CKS1B]", 2.86),
    ("VPVVTPTASTAPPVPATAPSPAPA [SNAP91]", 5.05),
    ("NDVRQAARSAASYMLFDPKDSVMQ [P3H4]", 4.08),
    ("KRRRSVTPPEEQQEAEEPKARVLR [CDC25B]", 5.67),
    ("PRVEYIDRPRCCLRGKECCINRFQ [BTBD1]", 2.61),
    ("CAGKAKRSGGHAPRVRELLLDALS [ESR2]", 2.52),
    ("PAPALCCAPYDSRLLGSARPELGA [IRX6]", 3.1),
    ("GKYNAMVLELLGPSLEDLFDLCDR [CSNK1G3]", 2.18),
    ("RDYKIQASRTWCFYNTEDIKDWED [PTGFR]", 3.68),
    ("LPLRVSFCPLSLWRWQLYAAQSTK [CLPTM1]", 2.24),
    ("EDTHVQIGQVHEEFKQNIENVSVE [FCHO1]", 5.49),
    ("KYESVLQLGRALTAHLYSLLQTQH [ARFIP2]", 2.85),
]

meta.source: the supplement of paper PMC10567573
